target: human TRPM8 receptor expressed in transfected 293H cells (Homo sapiens); construct: expressed in transfected cells; host or cells: 293H cells; experiment: TRPM8 Human Transient Potential Ion Channel Cell Based Agonist Calcium Flux Assay (FLIPR)
Sequence (Q7Z2W7 whole entry): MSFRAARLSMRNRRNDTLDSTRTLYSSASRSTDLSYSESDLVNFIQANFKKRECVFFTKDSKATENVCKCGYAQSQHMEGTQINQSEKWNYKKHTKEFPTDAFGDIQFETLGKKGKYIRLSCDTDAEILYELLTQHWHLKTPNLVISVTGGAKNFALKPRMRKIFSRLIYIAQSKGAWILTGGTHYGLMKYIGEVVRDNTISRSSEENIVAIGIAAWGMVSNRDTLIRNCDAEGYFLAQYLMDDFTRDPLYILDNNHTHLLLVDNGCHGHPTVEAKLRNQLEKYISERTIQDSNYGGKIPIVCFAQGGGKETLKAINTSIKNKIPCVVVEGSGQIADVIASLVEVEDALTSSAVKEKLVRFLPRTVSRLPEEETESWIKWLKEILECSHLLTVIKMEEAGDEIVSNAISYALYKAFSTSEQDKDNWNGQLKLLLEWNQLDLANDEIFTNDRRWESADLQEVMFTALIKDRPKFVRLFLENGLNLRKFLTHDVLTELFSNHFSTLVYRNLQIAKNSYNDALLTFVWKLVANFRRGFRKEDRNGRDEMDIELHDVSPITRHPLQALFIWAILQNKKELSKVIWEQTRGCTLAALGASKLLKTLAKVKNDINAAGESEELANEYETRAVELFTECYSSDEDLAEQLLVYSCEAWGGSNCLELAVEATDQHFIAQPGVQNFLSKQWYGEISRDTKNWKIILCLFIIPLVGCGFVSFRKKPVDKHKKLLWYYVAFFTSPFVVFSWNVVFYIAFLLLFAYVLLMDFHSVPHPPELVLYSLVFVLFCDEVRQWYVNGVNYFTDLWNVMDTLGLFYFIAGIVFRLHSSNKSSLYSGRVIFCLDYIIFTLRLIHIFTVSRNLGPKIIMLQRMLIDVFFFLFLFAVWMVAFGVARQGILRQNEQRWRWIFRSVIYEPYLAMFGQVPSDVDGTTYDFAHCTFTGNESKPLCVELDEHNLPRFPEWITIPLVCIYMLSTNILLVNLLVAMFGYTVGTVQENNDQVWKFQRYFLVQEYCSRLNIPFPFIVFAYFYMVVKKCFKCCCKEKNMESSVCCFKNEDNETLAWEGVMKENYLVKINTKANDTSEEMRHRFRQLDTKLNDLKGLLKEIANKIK
MEASURE: EC50 (nM)
Unit nM implied. Number only.

### Prompt I would be grateful if you could share the reported EC50 for CC(C)[C@@H]1CC[C@@H](C)C[C@H]1C(=O)NCc1ccc(CN2CCNCC2)cc1.Cl.Cl [Compound 15, dihydrochloride] .
### Response 79

###

// reported solubility at 30 min for each item listed
Assay: Solubility assay in DI water
Format: physicochemical
Conditions: DI water, thermodynamic from solid, HCl salts, visual, stepwise dilution from 200 mg/mL, sonication and vortex
Method: In order to determine the aqueous solubility of the compounds indicated, the HCl salts of the following compounds were incubated at 200 mg/mL in DI water followed by sonication for 60 seconds and then vortex stirring for 60 seconds. If insoluble material was observed, the sample was diluted to 150, 100, 50, 25, or 20 mg/mL until no insoluble material was observed. […]

CC(C)[C@@H]1CC[C@@H](C)C[C@H]1C(=O)NCc1ccc(CN)cc1.Cl [Compound 4] ... ≥ 20 mg/mL

Consider now this further compound.
### Prompt I would be grateful if you could share the reported solubility at 30 min for CC(C)[C@@H]1CC[C@@H](C)C[C@H]1C(=O)NCc1ccc(C2CCNCC2)cc1.Cl [Compound 16] .
### Response ≥ 20 mg/mL
